Biological target: F508delCFTR (Homo sapiens, UniProt P13569, DEL508-508)
Construct: expressed in transfected cells; host or cells: CFBE41o- human lung-derived epithelial cells (CFBE41o-F508delCFTR-HRP), doxycycline-inducible
Sequence (P13569 with tags, fused parts or gaps DEL508-508): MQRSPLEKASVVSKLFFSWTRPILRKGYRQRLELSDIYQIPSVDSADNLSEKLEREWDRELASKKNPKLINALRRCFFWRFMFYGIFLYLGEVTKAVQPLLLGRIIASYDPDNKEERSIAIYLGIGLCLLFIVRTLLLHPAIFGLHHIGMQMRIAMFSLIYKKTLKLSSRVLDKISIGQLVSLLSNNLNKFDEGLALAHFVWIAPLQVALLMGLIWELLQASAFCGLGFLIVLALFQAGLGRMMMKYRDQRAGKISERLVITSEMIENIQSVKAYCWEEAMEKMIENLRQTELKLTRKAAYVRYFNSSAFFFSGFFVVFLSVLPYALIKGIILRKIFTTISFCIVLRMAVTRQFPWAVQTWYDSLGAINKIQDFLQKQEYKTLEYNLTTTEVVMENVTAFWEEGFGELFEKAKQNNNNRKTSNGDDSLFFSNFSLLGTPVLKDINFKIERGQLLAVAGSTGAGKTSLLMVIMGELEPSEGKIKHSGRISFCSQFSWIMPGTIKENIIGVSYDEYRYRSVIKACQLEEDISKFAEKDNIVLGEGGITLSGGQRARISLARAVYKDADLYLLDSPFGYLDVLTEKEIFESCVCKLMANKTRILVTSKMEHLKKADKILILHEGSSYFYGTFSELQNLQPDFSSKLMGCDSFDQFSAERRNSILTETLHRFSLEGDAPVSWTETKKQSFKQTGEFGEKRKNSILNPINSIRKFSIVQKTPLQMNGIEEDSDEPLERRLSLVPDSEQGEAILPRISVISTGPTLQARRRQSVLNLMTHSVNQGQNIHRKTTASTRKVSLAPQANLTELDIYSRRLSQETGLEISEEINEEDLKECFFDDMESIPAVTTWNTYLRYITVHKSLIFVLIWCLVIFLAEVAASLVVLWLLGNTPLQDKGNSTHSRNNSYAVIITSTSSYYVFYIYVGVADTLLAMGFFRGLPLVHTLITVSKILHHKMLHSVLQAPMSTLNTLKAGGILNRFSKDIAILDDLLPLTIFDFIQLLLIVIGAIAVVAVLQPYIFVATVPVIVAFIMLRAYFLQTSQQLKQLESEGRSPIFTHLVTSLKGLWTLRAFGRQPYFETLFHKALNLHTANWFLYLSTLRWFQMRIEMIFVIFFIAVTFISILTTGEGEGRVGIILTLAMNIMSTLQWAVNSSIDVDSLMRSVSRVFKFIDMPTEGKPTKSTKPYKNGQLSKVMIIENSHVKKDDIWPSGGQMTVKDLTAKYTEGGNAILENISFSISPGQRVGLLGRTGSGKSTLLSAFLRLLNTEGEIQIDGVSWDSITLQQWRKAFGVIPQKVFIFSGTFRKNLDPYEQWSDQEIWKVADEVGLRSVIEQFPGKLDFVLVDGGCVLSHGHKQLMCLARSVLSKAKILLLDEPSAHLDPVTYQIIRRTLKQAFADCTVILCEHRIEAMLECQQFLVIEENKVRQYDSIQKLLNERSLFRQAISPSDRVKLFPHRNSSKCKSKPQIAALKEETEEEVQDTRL
Test: Cell Surface Expression-Horse Radish Peroxidase (CSE-HRP) assay, test compound without co-corrector;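 on Emax: percent of on-plate 2 µM positive control corrector response over DMSO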
Assay type: cell-based
Conditions: maximum at any tested concentration, normalized to positive control, without co-corrector
Below: a set of entries, each annotated with reported Emax.

>  <compound>
COc1ccc(C2CCC2)c2c1[C@@H](C(=O)NS(=O)(=O)c1cccc3ccccc13)CC2

>  <reportedMetric>
Emax

>  <observed>
50 to 150%

$$$$
>  <compound>
CCC1(C(=O)NS(=O)(=O)c2ccccc2COC)CCc2c(Cl)cccc21 (stereo not shown)

>  <reportedMetric>
Emax

>  <observed>
< 50%

$$$$
>  <compound>
CCC1(C(=O)NS(=O)(=O)c2ccc(C3CCC3)c3ccccc23)CCc2c(C3CCC3)cccc21 (stereo not shown)

>  <reportedMetric>
Emax

>  <observed>
< 50%

$$$$

What Emax value was documented for this compound, COc1ccc(C(F)(F)F)c2c1[C@@H](C(=O)NS(=O)(=O)c1cccc3ccccc13)CC2 ? ≥ 150%

----------
Target: F508delCFTR (Homo sapiens, UniProt P13569, DEL508-508)
Construct: expressed in transfected cells; host or cells: CFBE41o- human lung-derived epithelial cells (CFBE41o-F508delCFTR-HRP), doxycycline-inducible
Experiment: Cell Surface Expression-Horse Radish Peroxidase (CSE-HRP) assay, test compound without co-corrector
Assay type: cell-based
Details: test compound without co-corrector
pEC50: −log10 of the molar value.
Below: a set of entries, each annotated with reported pEC50.

Completed entries (count: 2):
>  <molecule>
Cc1ccccc1S(=O)(=O)NC(=O)[C@@]1(C)CCc2ccc(Cl)cc21

>  <pEC50>
5.00 to 5.52

$$$$
>  <molecule>
COc1ncc(Br)c2c1C(C(=O)NS(=O)(=O)c1cccc3ccccc13)CCC2 (centres unmarked)

>  <pEC50>
5.00 to 5.52

$$$$

What pEC50 value was documented for this molecule, COc1ccc(C2CCC2)c2c1[C@H](C(=O)NS(=O)(=O)c1cccc3cnn(C)c13)CC2 (single isomer, unassigned) ? > 5.52

What pEC50 value was documented for this molecule, COc1ccc2c(c1)[C@@](C)(C(=O)NS(=O)(=O)c1ccccc1C)CC2 ? 5.00 to 5.52

What pEC50 value was documented for this molecule, COc1ccc(Cl)c2c1[C@@H](C(=O)NS(=O)(=O)c1cccc3ccccc13)CC2 ? 5.00 to 5.52

What pEC50 value was documented for this molecule, COc1ccc(OC)c2c1CC[C@@H]2C(=O)NS(=O)(=O)c1cccc2ccccc12 ? 5.00 to 5.52

What pEC50 value was documented for this molecule, COc1cccc(COc2ccc(Br)c3c2CCCC3C(=O)N(Cc2cccc(OC)c2)S(=O)(=O)c2cccc3ccccc23)c1 (centres unmarked) ? ≤ 5.00

What pEC50 value was documented for this molecule, CCOc1ccc(Br)c2c1CCCC2C(=O)NS(=O)(=O)c1cccc2ccccc12 (centres unmarked) ? > 5.52

What pEC50 value was documented for this molecule, O=C(NS(=O)(=O)c1cccc2ccccc12)C1CCc2c(Br)ccc(OC(F)F)c21 (centres unmarked) ? > 5.52

What pEC50 value was documented for this molecule, COc1ccc(Br)c2c1C(C(=O)NS(=O)(=O)c1cccc3c(OC)cccc13)CC2 (centres unmarked) ? 5.00 to 5.52

What pEC50 value was documented for this molecule, COc1cccc2c1CCC2C(=O)NS(=O)(=O)c1cccc([N+](=O)[O-])c1 (centres unmarked) ? ≤ 5.00

What pEC50 value was documented for this molecule, COc1cccc2c1[C@H](C(=O)NS(=O)(=O)c1cccc3ncccc13)CC2(C)C ? 5.00 to 5.52

What pEC50 value was documented for this molecule, COc1ncc(C2CCC2)c2c1[C@H](C(=O)NS(=O)(=O)c1cccc3ccccc13)CCC2 ? > 5.52

What pEC50 value was documented for this molecule, COc1cccc2c1CCC2C(=O)NS(=O)(=O)c1cc(Cl)ccc1F (centres unmarked) ? ≤ 5.00

What pEC50 value was documented for this molecule, CCC1(C(=O)NS(=O)(=O)c2ccccc2Cl)CCc2c(Cl)cccc21 (centres unmarked) ? > 5.52

What pEC50 value was documented for this molecule, CCC1(C(=O)NS(=O)(=O)c2cccc3cccc(O)c23)CCc2c(Cl)cccc21 (centres unmarked) ? > 5.52

What pEC50 value was documented for this molecule, COc1cc(CC2(C(=O)NS(=O)(=O)c3cccc4ccccc34)CCc3c(Cl)cccc32)ccn1 (centres unmarked) ? > 5.52

----------
Biological target: F508delCFTR (Homo sapiens, UniProt P13569, DEL508-508)
Construct: expressed in transfected cells; host or cells: CFBE41o- human lung-derived epithelial cells (CFBE41o-F508delCFTR-HRP), doxycycline-inducible
Test: Cell Surface Expression-Horse Radish Peroxidase (CSE-HRP) assay, test compound with co-corrector;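 further: percent of 2 µM positive control corrector over DMSO; co-corrector is that same compound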
Format: cell-based
Details: maximum at any tested concentration, normalized to positive control, with 2 μM co-corrector
reportedMetric: Maximum % activity (with co-corrector)

>  <compound>
CCC1(C(=O)NS(=O)(=O)c2ccccc2OC)CCc2c(Cl)cccc21 (centres unmarked)

>  <Maximum % activity (with co-corrector)>
+ (<150)

$$$$
>  <compound>
COc1ccc(C2CC2)c2c1C(C(=O)NS(=O)(=O)c1cccc3ccccc13)CCC2 (centres unmarked)

>  <Maximum % activity (with co-corrector)>
+++ (≥350)

$$$$
>  <compound>
COc1ccc(Cl)c2c1[C@@H](C(=O)NS(=O)(=O)c1cccc3ccccc13)CC2

>  <Maximum % activity (with co-corrector)>
++ (≥150 and <350)

$$$$
>  <compound>
COc1ccc(N2CCCC2)c2c1C(C(=O)NS(=O)(=O)c1cccc3ccccc13)CCC2 (centres unmarked)

>  <Maximum % activity (with co-corrector)>
+++ (≥350)

$$$$
>  <compound>
COc1cccc2c1CCC2C(=O)NS(=O)(=O)c1cc([N+](=O)[O-])ccc1Cl (centres unmarked)

>  <Maximum % activity (with co-corrector)>
+ (<150)

$$$$

What Maximum % activity (with co-corrector) value was documented for this compound, COc1ccc(C2=CCOCC2)c2c1CCCC2C(=O)NS(=O)(=O)c1cccc2ccccc12 (centres unmarked) ? +++ (≥350)

What Maximum % activity (with co-corrector) value was documented for this compound, COc1cccc2c1CCC2C(=O)NS(=O)(=O)c1ccc(NC(C)=O)cc1 (centres unmarked) ? + (<150)

What Maximum % activity (with co-corrector) value was documented for this compound, COc1cccc2c1CCC2C(=O)NS(=O)(=O)c1ccc(O)nc1 (centres unmarked) ? + (<150)

What Maximum % activity (with co-corrector) value was documented for this compound, COc1cccc2c1CCC2C(=O)NS(=O)(=O)c1ccccc1[N+](=O)[O-] (centres unmarked) ? ++ (≥150 and <350)

What Maximum % activity (with co-corrector) value was documented for this compound, COc1cccc2c1CCC2C(=O)NS(=O)(=O)c1cc(C)ccc1C(C)C (centres unmarked) ? + (<150)

What Maximum % activity (with co-corrector) value was documented for this compound, CCC1(C(=O)NS(=O)(=O)c2ccccc2OC(F)(F)F)CCc2c(Cl)cccc21 (centres unmarked) ? + (<150)

What Maximum % activity (with co-corrector) value was documented for this compound, COc1ccc(-c2ccccc2Oc2ccccc2)c2c1CCCC2C(=O)NS(=O)(=O)c1cccc2ccccc12 (centres unmarked) ? +++ (≥350)

----------
Molecular target: F508delCFTR (Homo sapiens, UniProt P13569, DEL508-508)
Construct: expressed in transfected cells; host or cells: CFBE41o- human lung-derived epithelial cells (CFBE41o-F508delCFTR-HRP), doxycycline-inducible
Assay: Cell Surface Expression-Horse Radish Peroxidase (CSE-HRP) assay, test compound with co-corrector;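 further: percent of 2 µM positive control corrector over DMSO; co-corrector is that same compound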
Type: cell-based
Conditions: maximum at any tested concentration, normalized to on-plate positive control, with 2 μM co-corrector
reportedMetric: Maximum % activity (with co-corrector)

>  <compound>
COc1ccc(-c2ccncc2)c2c1C(C(=O)NS(=O)(=O)c1cccc3ccccc13)CCC2 (stereo not drawn)

>  <Maximum % activity (with co-corrector)>
++ (≥150 and <350)

$$$$
>  <compound>
Cc1ccccc1S(=O)(=O)NC(=O)C1CCc2c(-c3cnn(C)c3)cccc21 (stereo not drawn)

>  <Maximum % activity (with co-corrector)>
+ (<150)

$$$$
>  <compound>
CNC(=O)c1ccc(OC)c2c1CCC2C(=O)NS(=O)(=O)c1cccc2ccccc12 (stereo not drawn)

>  <Maximum % activity (with co-corrector)>
+ (<150)

$$$$
>  <compound>
O=C(NS(=O)(=O)c1cccc2ccccc12)C1CCc2c(Br)ccc(O)c21 (stereo not drawn)

>  <Maximum % activity (with co-corrector)>
++ (≥150 and <350)

$$$$
>  <compound>
CCC1(C(=O)NS(=O)(=O)c2cccc(N3CCOCC3)c2C)CCc2c(Cl)cccc21 (stereo not drawn)

>  <Maximum % activity (with co-corrector)>
++ (≥150 and <350)

$$$$

What Maximum % activity (with co-corrector) value was documented for this compound, Cc1ccccc1S(=O)(=O)NC(=O)C1CCc2c(-c3ccn[nH]3)cccc21 (stereo not drawn) ? + (<150)

What Maximum % activity (with co-corrector) value was documented for this compound, Cc1ccccc1S(=O)(=O)NC(=O)C1CCc2c(-c3ccsc3)cccc21 (stereo not drawn) ? +++ (≥350)

What Maximum % activity (with co-corrector) value was documented for this compound, COc1ccc(C2=CCOCC2)c2c1C(C(=O)NS(=O)(=O)c1cccc3ncccc13)CC2 (stereo not drawn) ? +++ (≥350)

What Maximum % activity (with co-corrector) value was documented for this compound, CCC1(C(=O)NS(=O)(=O)c2ccc(Oc3ccccc3)cc2)CCc2c(Cl)cccc21 (stereo not drawn) ? + (<150)
